- SYSTEM TESTED: PARP2 (Homo sapiens, UniProt Q9UGN5)
- Construct: made in house
- Sequence (Q9UGN5 whole entry): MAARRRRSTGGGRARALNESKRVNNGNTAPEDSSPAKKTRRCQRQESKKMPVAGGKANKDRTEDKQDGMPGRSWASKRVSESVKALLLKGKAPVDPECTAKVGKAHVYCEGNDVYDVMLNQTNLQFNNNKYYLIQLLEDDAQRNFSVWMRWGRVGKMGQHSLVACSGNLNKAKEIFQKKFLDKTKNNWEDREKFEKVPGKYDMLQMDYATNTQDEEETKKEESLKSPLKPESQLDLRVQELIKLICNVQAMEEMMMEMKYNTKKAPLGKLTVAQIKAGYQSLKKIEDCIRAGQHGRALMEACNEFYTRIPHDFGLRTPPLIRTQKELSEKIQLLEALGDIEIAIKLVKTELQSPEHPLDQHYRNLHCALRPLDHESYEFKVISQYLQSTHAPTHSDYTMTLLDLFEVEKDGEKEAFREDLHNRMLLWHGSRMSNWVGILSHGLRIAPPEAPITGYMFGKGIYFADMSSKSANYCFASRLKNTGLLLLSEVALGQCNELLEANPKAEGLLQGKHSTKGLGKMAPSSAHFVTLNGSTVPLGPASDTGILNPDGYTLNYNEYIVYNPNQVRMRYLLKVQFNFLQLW
- ASSAY DETAILS: biochemical
- Format: biochemical
- EXPERIMENTAL SETUP: NAD+ consumption assay
MEASUREMENT LABEL: IC50

Prompt line: Which IC50 is listed for Nc1nnc2sc3cc(O)ccc3n12 [Compound 109] ?
Response line: 5 to 10 nM

====

- SYSTEM TESTED: PARP15 (Homo sapiens, UniProt Q460N3)
- Sequence (Q460N3 1-678): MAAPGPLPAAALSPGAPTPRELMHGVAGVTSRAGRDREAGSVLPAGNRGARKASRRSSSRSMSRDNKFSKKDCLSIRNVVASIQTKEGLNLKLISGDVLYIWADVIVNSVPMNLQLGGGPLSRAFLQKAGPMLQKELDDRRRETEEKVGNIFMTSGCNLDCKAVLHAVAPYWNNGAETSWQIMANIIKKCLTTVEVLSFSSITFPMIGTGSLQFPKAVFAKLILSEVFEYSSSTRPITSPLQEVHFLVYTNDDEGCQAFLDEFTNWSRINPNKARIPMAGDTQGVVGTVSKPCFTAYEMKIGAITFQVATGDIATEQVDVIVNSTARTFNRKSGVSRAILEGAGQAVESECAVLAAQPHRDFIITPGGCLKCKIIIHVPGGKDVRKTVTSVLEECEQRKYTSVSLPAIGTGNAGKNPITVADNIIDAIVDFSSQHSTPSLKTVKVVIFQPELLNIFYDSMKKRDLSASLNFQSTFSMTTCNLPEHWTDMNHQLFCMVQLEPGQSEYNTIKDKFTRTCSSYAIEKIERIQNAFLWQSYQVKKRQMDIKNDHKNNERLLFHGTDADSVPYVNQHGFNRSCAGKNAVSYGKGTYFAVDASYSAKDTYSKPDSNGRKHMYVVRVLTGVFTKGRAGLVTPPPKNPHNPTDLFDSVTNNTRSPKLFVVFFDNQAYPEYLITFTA
- ASSAY DETAILS: biochemical
- EXPERIMENTAL SETUP: PARP15 IC50, Tables 1-3 assay
MEASUREMENT LABEL: IC50 (nM)
State the answer as a number, implicitly in nM.

Prompt line: Lab note: need IC50 for Nc1nnc2sc3cc(Br)ccc3n12 on PARP15 (Homo sapiens, UniProt Q460N3), anyone have it?
Response line: 150

Kindly consider the entry below.
Prompt line: Can you look up IC50 on PARP15 (Homo sapiens, UniProt Q460N3) for COc1cc2sc3nnc(N)n3c2cc1OC ?
Response line: 170

====

- SYSTEM TESTED: PARP10 (Homo sapiens)
- Construct: made in house
- Sequence (Q53GL7 whole entry): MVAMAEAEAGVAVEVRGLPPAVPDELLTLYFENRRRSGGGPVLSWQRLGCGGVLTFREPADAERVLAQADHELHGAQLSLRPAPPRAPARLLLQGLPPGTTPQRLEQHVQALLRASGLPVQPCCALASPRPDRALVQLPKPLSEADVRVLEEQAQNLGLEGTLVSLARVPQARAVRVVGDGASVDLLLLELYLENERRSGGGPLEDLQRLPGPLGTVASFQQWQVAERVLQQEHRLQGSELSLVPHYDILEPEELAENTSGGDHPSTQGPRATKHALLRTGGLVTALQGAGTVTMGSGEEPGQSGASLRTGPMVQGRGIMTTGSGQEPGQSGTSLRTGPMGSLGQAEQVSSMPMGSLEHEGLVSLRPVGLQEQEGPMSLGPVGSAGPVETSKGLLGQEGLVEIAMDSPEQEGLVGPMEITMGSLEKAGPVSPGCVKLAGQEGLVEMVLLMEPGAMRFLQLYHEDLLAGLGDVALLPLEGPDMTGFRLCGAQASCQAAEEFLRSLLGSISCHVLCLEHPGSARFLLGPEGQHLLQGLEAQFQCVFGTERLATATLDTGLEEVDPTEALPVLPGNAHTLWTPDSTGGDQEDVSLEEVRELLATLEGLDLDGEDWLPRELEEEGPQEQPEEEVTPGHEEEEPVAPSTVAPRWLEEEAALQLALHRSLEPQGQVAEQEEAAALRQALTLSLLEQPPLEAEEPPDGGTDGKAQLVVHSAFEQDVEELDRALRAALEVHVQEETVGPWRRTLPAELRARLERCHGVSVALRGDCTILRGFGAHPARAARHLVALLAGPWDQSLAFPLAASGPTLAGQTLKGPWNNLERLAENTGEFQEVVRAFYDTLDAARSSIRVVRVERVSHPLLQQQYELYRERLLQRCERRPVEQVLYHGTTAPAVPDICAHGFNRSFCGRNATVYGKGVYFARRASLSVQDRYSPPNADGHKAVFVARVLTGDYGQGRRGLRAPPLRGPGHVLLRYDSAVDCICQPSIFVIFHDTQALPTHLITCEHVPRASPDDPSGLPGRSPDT
- ASSAY DETAILS: Activity assay measuring NAD+ consumption, PARP10 (Tables 1-3)
- Assay type: biochemical
- EXPERIMENTAL SETUP: PARP10 IC50, Tables 1-3 assay
Hi! Just check whether IC50 is below 80 nM. Below gives yes (1), equal or above gives no (0).

As a guide, the following entries are already answered.
Prompt line: Hello, I'm reviewing records and need to know if IC50 of CCOc1ccc(OCC)c2c1sc1nncn12 is below 80 nM. Could you check?
Response line: no (0)

Prompt line: Is IC50 of Nc1nnc2sc3cc(Br)ccc3n12 strictly below 80 nM?
Response line: yes (1)

Prompt line: Lab note: IC50 threshold 80 nM. Does this compound come in strictly under it? COc1cc2sc3nnc(N)n3c2cc1OC
Response line: no (0)

Prompt line: Could you please tell me whether IC50 recorded for Nc1nnc2sc3cc(O)ccc3n12 is less than 80 nM?
Response line: no (0)

Consider now this further compound.
Prompt line: Problem: For the compound CCOc1ccc(OCC)c2c1sc1nnc(N)n12 , is IC50 under 80 nM?
Response line: yes (1)

====

- SYSTEM TESTED: TNKS2 (Homo sapiens, UniProt Q9H2K2)
- Sequence (Q9H2K2 whole entry): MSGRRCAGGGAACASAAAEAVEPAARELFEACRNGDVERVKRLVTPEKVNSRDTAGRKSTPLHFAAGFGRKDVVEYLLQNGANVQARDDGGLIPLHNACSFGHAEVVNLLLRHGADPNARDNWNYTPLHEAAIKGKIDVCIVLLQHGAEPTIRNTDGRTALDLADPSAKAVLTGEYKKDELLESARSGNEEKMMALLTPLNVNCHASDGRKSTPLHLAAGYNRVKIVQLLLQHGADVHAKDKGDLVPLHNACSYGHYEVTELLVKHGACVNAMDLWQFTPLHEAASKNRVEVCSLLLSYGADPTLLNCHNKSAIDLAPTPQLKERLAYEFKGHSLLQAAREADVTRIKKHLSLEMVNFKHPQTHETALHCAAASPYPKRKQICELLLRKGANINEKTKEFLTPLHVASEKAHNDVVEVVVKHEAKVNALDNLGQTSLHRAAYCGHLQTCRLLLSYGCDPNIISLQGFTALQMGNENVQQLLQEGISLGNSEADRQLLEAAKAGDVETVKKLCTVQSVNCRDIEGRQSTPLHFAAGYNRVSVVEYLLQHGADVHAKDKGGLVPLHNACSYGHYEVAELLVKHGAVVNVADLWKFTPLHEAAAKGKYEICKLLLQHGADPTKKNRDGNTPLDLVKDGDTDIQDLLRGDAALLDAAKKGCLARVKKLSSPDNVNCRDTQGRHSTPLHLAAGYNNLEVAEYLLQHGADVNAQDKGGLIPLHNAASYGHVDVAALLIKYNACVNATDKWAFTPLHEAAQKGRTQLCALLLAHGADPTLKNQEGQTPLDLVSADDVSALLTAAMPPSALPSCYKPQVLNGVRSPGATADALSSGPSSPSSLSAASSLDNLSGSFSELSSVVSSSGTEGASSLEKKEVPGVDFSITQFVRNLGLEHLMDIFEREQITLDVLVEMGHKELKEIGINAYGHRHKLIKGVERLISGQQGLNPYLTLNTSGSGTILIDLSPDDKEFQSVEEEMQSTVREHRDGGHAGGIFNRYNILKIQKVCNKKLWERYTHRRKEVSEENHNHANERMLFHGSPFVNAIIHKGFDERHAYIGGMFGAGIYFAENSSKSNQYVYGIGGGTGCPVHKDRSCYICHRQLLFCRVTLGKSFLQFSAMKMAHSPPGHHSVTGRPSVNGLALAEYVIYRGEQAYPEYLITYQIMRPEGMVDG
- ASSAY DETAILS: biochemical
- EXPERIMENTAL SETUP: read-out: TNKS2 IC50; NAD+ consumption assay; > less than 50% inhibition at highest concentration, >> no inhibition
MEASUREMENT LABEL: pIC50
# pIC50 = -log10(concentration in molar units)

Some compounds with recorded pIC50:
Prompt line: # pIC50 lookup, item Cc1ccc2c(c1)sc1nnc(N)n12
Response line: 5.24

Prompt line: Look up pIC50 for this compound: Clc1ccc2c(c1)sc1nncn12
Response line: 5.00

Prompt line: Which pIC50 reading was recorded for the compound Oc1ccc(O)c2c1sc1nncn12 ?
Response line: 5.51

Prompt line: Which value of pIC50 has been reported for CCc1ccc2c(c1)sc1nncn12 in the records?
Response line: 5.28

Prompt line: I'd like to know its pIC50. The compound in question is COc1ccc2sc3nncn3c2c1
Response line: 6.00

More entries:
Prompt line: Item COc1cc(OC)c2sc3nncn3c2c1 has what recorded pIC50?
Response line: 5.12

Prompt line: Entry c1ccc2c(c1)sc1nncn12 has what pIC50?
Response line: 5.60

Prompt line: I would be grateful if you could share the reported pIC50 for COc1ccc(OC)c2c1sc1nncn12 .
Response line: 5.40

Prompt line: I would be grateful if you could share the reported pIC50 for COc1ccc(OC)c2c1sc1nnc(N)n12 .
Response line: 5.00

====

- SYSTEM TESTED: PARP10 (Homo sapiens)
- Construct: made in house
- ASSAY DETAILS: Activity assay measuring NAD+ consumption, PARP10 (Tables 1-3)
- Assay type: biochemical
- EXPERIMENTAL SETUP: Tables 1-3 assay; > less than 50% inhibition, >> no inhibition at reported concentration; * value limited by protein concentration; read-out: PARP10 IC50
// IC50 lookup, one value per entry

Prompt line: Quick one: IC50 of COc1ccc(OC)c2c1SC1=NNC(NC(=O)c3ccc(Cl)cc3)N12 (centres unmarked) ?
Response line: > 10 µM

New cases:
Prompt line: Look at this compound and give its reported IC50. COc1ccc(OC)c2c1SC1=NNC(SC)N12 (centres unmarked)
Response line: > 10 µM

====

- SYSTEM TESTED: PARP15 (Homo sapiens, UniProt Q460N3)
- ASSAY DETAILS: biochemical
Measured IC50, listed per entry for reference.

Prompt line: Name the reported IC50 value associated with the compound COc1ccc(OCC(C)C)c2c1sc1nnc(N)n12
Response line: 180 nM

Consider the additional compound presented here.
Prompt line: What value of IC50 has been recorded for this entry: Nc1nnc2sc3cc(O)ccc3n12
Response line: 680 nM

====

The reader will find reported pIC50 values listed item by item below.
- SYSTEM TESTED: PARP2 (Homo sapiens, UniProt Q9UGN5)
- Construct: made in house
- ASSAY DETAILS: biochemical
- Format: biochemical
- EXPERIMENTAL SETUP: NAD+ consumption assay; > less than 50% inhibition at highest concentration, >> no inhibition
Note: pIC50 values are expressed as the negative base-10 logarithm of concentration in M.

Prompt line: API: value(readout=pIC50, system=PARP2 (Homo sapiens, UniProt Q9UGN5)) for record Cc1ccc2c(c1)sc1nncn12
Response line: 5.40

Prompt line: Item Oc1cccc2c1sc1nncn12 with PARP2 (Homo sapiens, UniProt Q9UGN5) - pIC50?
Response line: 4.54

Could you now look at the following molecule, please?
Prompt line: Test system PARP2 (Homo sapiens, UniProt Q9UGN5); read-out pIC50; what value for Cc1ccc2c(c1)sc1nnc(NCc3ccc(Cl)cc3)n12 ?
Response line: 4.15

====

- SYSTEM TESTED: PARP10 (Homo sapiens)
- Construct: made in house
- ASSAY DETAILS: Activity assay measuring NAD+ consumption, PARP10 (Tables 1-3)
- Assay type: biochemical
- EXPERIMENTAL SETUP: PARP10 IC50, Tables 1-3 assay; > less than 50% inhibition, >> no inhibition at reported concentration; * value limited by protein concentration
Below, each entry is listed with its recorded IC50.
// return numeric value only (unit: µM, not printed)

Prompt line: What IC50 value was documented for this compound, c1cnc2sc3nncn3c2c1 ?
Response line: 30

Please turn your attention to the following entry.
Prompt line: Recorded IC50 for CC(=O)Nc1nnc2sc3cc(C)ccc3n12 , please?
Response line: 2.6

====

- SYSTEM TESTED: PARP15 (Homo sapiens)
- ASSAY DETAILS: biochemical
- EXPERIMENTAL SETUP: read-out: PARP15 IC50; Tables 1-3 assay; > less than 50% inhibition, >> no inhibition at reported concentration; * value limited by protein concentration
MEASUREMENT LABEL: pIC50
Please keep in mind that pIC50 is minus log10 of the molar concentration; only the number is needed.

Prompt line: For the molecule COc1ccc(OC)c2c1SC1=NNC(NC(=O)c3ccc(Cl)cc3)N12 (centres unmarked) , what pIC50 is on record?
Response line: 5.10

====

The reader will find reported log10 of IC50 values listed item by item below.
- SYSTEM TESTED: TNKS2 (Homo sapiens)
- ASSAY DETAILS: biochemical
- EXPERIMENTAL SETUP: read-out: TNKS2 IC50; NAD+ consumption assay; > less than 50% inhibition at highest concentration, >> no inhibition
Heads up: the numbers are on a log10 scale; they represent IC50 in µM.

Prompt line: Endpoint output: log10 of IC50 of Cc1ccc2c(c1)sc1nncn12 . Value?
Response line: 0.72

Proceed to the following item.
Prompt line: Sample COc1cccc2sc3nncn3c12 — what was its log10 of IC50?
Response line: 0.00
